- Tested on: HEK-293T
- Test method notes: Multiplex assay against HEK293T
- Type: toxicity, cell-based
- Reported conditions: human, 24 h, 1 µM, compound concentration 1 uM, replicate 1
Recorded metric: Population Mitochondria Different-Phenotype (%)
Answer in %, number only, no unit symbol.

Ask | Fill blank: measured Population Mitochondria Different-Phenotype (%) of the molecule CCCCC[C@H](O)/C=C/[C@H]1[C@H](O)CC(=O)[C@@H]1CCCCCCC(=O)O is ____.
Reply | 22

Ask | Fill blank: measured Population Mitochondria Different-Phenotype (%) of the molecule S=C(NCCCc1c[nH]cn1)NCCCN(Cc1ccc(Cl)c(Cl)c1)c1ccc(Br)cn1 is ____.
Reply | 45

Ask | Fill blank: measured Population Mitochondria Different-Phenotype (%) of the molecule COc1cc2nc(N3CCN(C(=O)COc4c(OC)cccc4C(C)C)CC3)nc(N)c2cc1OC.Cl.Cl is ____.
Reply | 27

Ask | Fill blank: measured Population Mitochondria Different-Phenotype (%) of the molecule CC(C)C[C@H](CO)Nc1nc(S[C@@H](C)c2ccccc2)nc2nc(N)sc12 is ____.
Reply | 25

Ask | Fill blank: measured Population Mitochondria Different-Phenotype (%) of the molecule COc1cc2nc(N3CCN(C(=O)c4ccco4)CC3)nc(N)c2cc1OC.Cl [PRAZOSIN HYDROCHLORIDE] is ____.
Reply | 25

Ask | Fill blank: measured Population Mitochondria Different-Phenotype (%) of the molecule Cc1sc2c(c1C)C(c1ccc(Cl)cc1)=N[C@H](CC(=O)OC(C)(C)C)c1nnc(C)n1-2 is ____.
Reply | 29

Ask | Fill blank: measured Population Mitochondria Different-Phenotype (%) of the molecule Cc1c(Cc2ccc3ccccc3n2)c2cc(F)ccc2n1CC(=O)O is ____.
Reply | 20

Ask | Fill blank: measured Population Mitochondria Different-Phenotype (%) of the molecule CN1CCN(c2ccc(Nc3c4ccccc4nc4ccccc34)cc2)CC1.Cl.Cl.O is ____.
Reply | 40

Ask | Fill blank: measured Population Mitochondria Different-Phenotype (%) of the molecule C[C@H](NC(=O)CNC(=O)c1cccc(Cl)c1)c1ccccc1 is ____.
Reply | 25

Ask | Fill blank: measured Population Mitochondria Different-Phenotype (%) of the molecule Cl.Cl.OCCOCCN1CCN(C(c2ccccc2)c2ccc(Cl)cc2)CC1 (stereo not drawn) [HYDROXYZINE HYDROCHLORIDE] is ____.
Reply | 34

Ask | Fill blank: measured Population Mitochondria Different-Phenotype (%) of the molecule Cc1cc(-c2ccc3c(c2)CC[C@H]3N2CC3(CCN(C(=O)Cc4cn5cc(C)sc5n4)CC3)C2)ncn1 is ____.
Reply | 24

Ask | Fill blank: measured Population Mitochondria Different-Phenotype (%) of the molecule COC(c1ccccc1)(c1ccccc1)[C@H](Oc1nc(C)cc(C)n1)C(=O)O is ____.
Reply | 30

Ask | Fill blank: measured Population Mitochondria Different-Phenotype (%) of the molecule COCCn1c(C)c(C)s/c1=N\C(=O)C1C(C)(C)C1(C)C is ____.
Reply | 26

Ask | Fill blank: measured Population Mitochondria Different-Phenotype (%) of the molecule O=c1ccc2ccc(OCCCCN3CCN(c4cccc5sccc45)CC3)cc2[nH]1 is ____.
Reply | 51

Ask | Fill blank: measured Population Mitochondria Different-Phenotype (%) of the molecule O=C(NCCNCC(O)COc1ccc(O)cc1)N1CCOCC1.O=C(NCCNCC(O)COc1ccc(O)cc1)N1CCOCC1.O=C(O)/C=C/C(=O)O (stereo not drawn) [XAMOTEROL FUMARATE] is ____.
Reply | 18

Ask | Fill blank: measured Population Mitochondria Different-Phenotype (%) of the molecule COc1c(Nc2ccc(S(C)(=O)=O)nc2C)ncnc1OC1CCN(C(=O)OC(C)C)CC1 is ____.
Reply | 20

Ask | Fill blank: measured Population Mitochondria Different-Phenotype (%) of the molecule CN(C)C(=O)Cn1cc(-c2ccc(-c3nnc4ccccn34)cc2)cn1 is ____.
Reply | 28

Ask | Fill blank: measured Population Mitochondria Different-Phenotype (%) of the molecule Nc1nc(-c2ccco2)c2cnn(Cc3ccccc3F)c2n1 is ____.
Reply | 36

Data origin, for the record: ChEMBL document CHEMBL5058577
